- Protocol description: Pharmacokinetics after intravenous administration to sheep
- Assay type: in vivo
- Stated conditions: both sexes, serum, iv; I.V. solution, 5 mg/kg, sheep n = 6, mean ± S.D.
Measurement type: AUC(0-inf) (µg·h/mL)
# value in µg·h/mL; strip the unit string

Quick one: AUC(0-inf) of O=C1NC(=O)C(c2ccc(-c3ccccc3)cc2)(N2CCN(c3ccc([N+](=O)[O-])cc3)CC2)C(=O)N1 ?
859

###

- Protocol description: Phase solubility study of Compound I with HP-β-CD and L-lysine
- Format: physicochemical
- Stated conditions: 500 mM L-lysine solution with 200 mM HP-β-CD, 25 °C, aqueous with cosolvent or surfactant or cyclodextrin, thermodynamic from solid, 500 mM L-lysine and 200 mM HP-β-CD; read-out: solubility
Measurement type: solubility at 7 days (mg/mL)
Please state the figure in mg/mL; there is no need to write the unit.

Item under review: O=C1NC(=O)C(c2ccc(-c3ccccc3)cc2)(N2CCN(c3ccc([N+](=O)[O-])cc3)CC2)C(=O)N1 . Reported solubility at 7 days?
38.1

###

- Test target: Human MMP-2 (Homo sapiens)
- Sequence (P08253 110-660): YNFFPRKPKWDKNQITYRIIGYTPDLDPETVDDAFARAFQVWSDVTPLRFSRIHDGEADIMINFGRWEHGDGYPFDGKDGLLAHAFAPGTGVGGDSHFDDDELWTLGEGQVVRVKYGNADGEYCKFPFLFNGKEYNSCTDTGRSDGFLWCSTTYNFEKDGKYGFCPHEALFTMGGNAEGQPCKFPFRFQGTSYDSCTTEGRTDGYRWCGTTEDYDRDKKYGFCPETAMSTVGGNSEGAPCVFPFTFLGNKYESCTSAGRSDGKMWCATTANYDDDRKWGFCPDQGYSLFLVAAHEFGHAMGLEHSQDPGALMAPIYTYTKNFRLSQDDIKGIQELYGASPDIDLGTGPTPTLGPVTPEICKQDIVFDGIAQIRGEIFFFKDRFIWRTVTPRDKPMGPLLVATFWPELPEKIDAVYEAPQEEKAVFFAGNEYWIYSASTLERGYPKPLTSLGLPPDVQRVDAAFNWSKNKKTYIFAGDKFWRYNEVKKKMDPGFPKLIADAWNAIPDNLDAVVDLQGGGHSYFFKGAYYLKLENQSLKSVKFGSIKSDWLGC
Measurement type: pIC50
Give only the number. pIC50 is defined as minus log10 of concentration in molar units.

Which pIC50 is listed for O=C1NC(=O)C(c2ccc(-c3ccccc3)cc2)(N2CCN(c3ccc([N+](=O)[O-])cc3)CC2)C(=O)N1 ?
7.19

###

- Protocol description: Phase solubility study of Compound I with HP-β-CD and L-lysine
- Type: physicochemical
- Stated conditions: 500 mM L-lysine solution, no cyclodextrin, 25 °C, aqueous buffer, thermodynamic from solid, L-lysine 500 mM, 25° C.; read-out: Solubility without CD
Measurement type: solubility at 7 days (µg/mL)
Your answer is read as µg/mL, so omit the unit and give the number.

// query solubility at 7 days value for entry O=C1NC(=O)C(c2ccc(-c3ccccc3)cc2)(N2CCN(c3ccc([N+](=O)[O-])cc3)CC2)C(=O)N1 [Compound I]
90

###

- Protocol description: Phase solubility study of Compound I with HP-β-CD and L-lysine
- Format: physicochemical
- Stated conditions: 500 mM L-lysine solution with 200 mM HP-β-CD, 25 °C, aqueous with cosolvent or surfactant or cyclodextrin, thermodynamic from solid, L-lysine 500 mM, 25° C.; read-out: Solubility with HP-β-CD (200 mM)
Measurement type: solubility at 7 days (mg/mL)
Note: unit mg/mL is implicit; provide only the numeric part.

Which value of solubility at 7 days has been reported for O=C1NC(=O)C(c2ccc(-c3ccccc3)cc2)(N2CCN(c3ccc([N+](=O)[O-])cc3)CC2)C(=O)N1 in the records?
38.1

###

- Test target: Human MMP-9 (Homo sapiens, UniProt P14780)
- Sequence (P14780 107-707 limits assumed): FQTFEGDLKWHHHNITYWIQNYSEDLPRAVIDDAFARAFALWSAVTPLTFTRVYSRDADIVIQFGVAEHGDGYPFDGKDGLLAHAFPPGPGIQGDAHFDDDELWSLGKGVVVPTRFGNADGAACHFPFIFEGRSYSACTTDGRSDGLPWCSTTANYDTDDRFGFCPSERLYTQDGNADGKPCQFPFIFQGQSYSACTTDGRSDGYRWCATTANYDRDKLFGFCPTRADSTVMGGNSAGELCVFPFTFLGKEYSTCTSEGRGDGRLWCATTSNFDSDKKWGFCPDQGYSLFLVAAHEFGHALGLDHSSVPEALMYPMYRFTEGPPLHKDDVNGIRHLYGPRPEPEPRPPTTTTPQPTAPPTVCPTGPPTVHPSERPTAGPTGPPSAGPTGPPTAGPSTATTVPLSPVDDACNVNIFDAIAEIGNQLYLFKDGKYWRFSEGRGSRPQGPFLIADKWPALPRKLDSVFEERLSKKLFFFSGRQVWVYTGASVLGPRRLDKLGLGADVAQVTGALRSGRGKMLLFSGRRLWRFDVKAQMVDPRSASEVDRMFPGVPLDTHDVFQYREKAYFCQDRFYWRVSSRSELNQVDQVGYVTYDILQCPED
- Protocol description: MMP enzymatic activity, modified fluorescence assay (DNP-substrate)
- Assay type: biochemical
- Stated conditions: read-out: IC50 MMP-9
Measurement type: pIC50
In textbook form, pIC50 equals minus log to base ten of the concentration in mol/L.

Request - read-out pIC50 | tested on Human MMP-9 (Homo sapiens, UniProt P14780) | compound CNC(=O)[C@H](Cc1ccccc1)NC(=O)[C@H](CC(C)C)[C@H](CSc1cccs1)C(=O)NO [Batimastat, reference compound]
7.64

###

- Protocol description: Pharmacokinetics after intravenous administration to sheep
- Type: in vivo
- Stated conditions: both sexes, sheep, serum, iv, 5 mg/kg, I.V. solution, sheep n = 6, mean ± S.D., read-out: Clt (total body clearance) (converted)
Measurement type: clearance

For O=C1NC(=O)C(c2ccc(-c3ccccc3)cc2)(N2CCN(c3ccc([N+](=O)[O-])cc3)CC2)C(=O)N1 , what is its reported clearance?
~5.97 mL/min

###

- Protocol description: Pharmacokinetics after intravenous administration to sheep
- Assay type: in vivo
- Stated conditions: both sexes, sheep, serum, iv, 5 mg/kg, I.V. solution, sheep n = 6, mean ± S.D., read-out: T1/2β (biologic half-life) (converted)
Measurement type: half-life

Using the record for O=C1NC(=O)C(c2ccc(-c3ccccc3)cc2)(N2CCN(c3ccc([N+](=O)[O-])cc3)CC2)C(=O)N1 [Compound I] , report its half-life.
~15.5 h

###

- Test target: Human MMP-14 (Homo sapiens)
- Protocol description: MMP enzymatic activity, modified fluorescence assay (DNP-substrate)
- Assay type: biochemical
- Stated conditions: read-out: IC50 MMP-14
Measurement type: IC50 (nM)
Respond with the bare value in nM.

Which IC50 reading was recorded for the compound CNC(=O)[C@H](Cc1ccccc1)NC(=O)[C@H](CC(C)C)[C@H](CSc1cccs1)C(=O)NO [Batimastat, reference compound] ?
19
